Answer each item with its documented variant/HC_K99L.
target: T1, human tissue factor pathway inhibitor (TFPI) (human, UniProt P10646 29-304, limits assumed)
T1 construct: bought; also called hTFPI; human TFPI
T1 sequence (looked up): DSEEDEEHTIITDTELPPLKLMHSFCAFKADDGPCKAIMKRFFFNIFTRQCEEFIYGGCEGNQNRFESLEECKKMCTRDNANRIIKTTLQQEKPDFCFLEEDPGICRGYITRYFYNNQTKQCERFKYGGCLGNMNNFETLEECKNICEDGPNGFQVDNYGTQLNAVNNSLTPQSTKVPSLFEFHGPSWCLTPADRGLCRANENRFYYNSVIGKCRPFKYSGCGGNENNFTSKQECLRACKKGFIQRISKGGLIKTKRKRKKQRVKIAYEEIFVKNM
assay_explanation: competitive ELISA
The answer is to be given in ratio; state only the numeric part.

Specify measured variant/HC_K99L for 2A8 HC Q1E+R30S+S35D+S55R+S56G+K99L/LC Y48F+N51V+D91W (Fab, V domains shown) VH: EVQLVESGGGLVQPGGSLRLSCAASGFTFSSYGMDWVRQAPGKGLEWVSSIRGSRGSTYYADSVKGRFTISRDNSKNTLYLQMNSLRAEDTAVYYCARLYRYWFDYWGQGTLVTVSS VL: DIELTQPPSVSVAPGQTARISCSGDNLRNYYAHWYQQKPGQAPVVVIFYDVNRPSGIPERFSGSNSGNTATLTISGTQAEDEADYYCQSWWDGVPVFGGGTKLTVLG .
11.9

Specify measured variant/HC_K99L for 2A8 HC S31V+S35L+I51D+S54F+K99V/LC N51V+D91K (Fab, V domains shown) VH: QVQLVESGGGLVQPGGSLRLSCAASGFTFRVYGMLWVRQAPGKGLEWVSSDRGFSSSTYYADSVKGRFTISRDNSKNTLYLQMNSLRAEDTAVYYCARVYRYWFDYWGQGTLVTVSS VL: DIELTQPPSVSVAPGQTARISCSGDNLRNYYAHWYQQKPGQAPVVVIYYDVNRPSGIPERFSGSNSGNTATLTISGTQAEDEADYYCQSWKDGVPVFGGGTKLTVLG .
8.6

Specify measured variant/HC_K99L for 2A8 HC S35D+S55R+K99L/LC Y48F+N51V+S89A+D91W (Fab, V domains shown) VH: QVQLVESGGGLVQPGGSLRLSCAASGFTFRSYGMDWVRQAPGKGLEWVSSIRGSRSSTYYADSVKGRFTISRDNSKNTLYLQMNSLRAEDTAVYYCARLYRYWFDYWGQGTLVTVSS VL: DIELTQPPSVSVAPGQTARISCSGDNLRNYYAHWYQQKPGQAPVVVIFYDVNRPSGIPERFSGSNSGNTATLTISGTQAEDEADYYCQAWWDGVPVFGGGTKLTVLG .
18.6

Source: patent USRE47150
